System: CYP1A2 (Homo sapiens, UniProt P05177)
Sequence (P05177 whole entry): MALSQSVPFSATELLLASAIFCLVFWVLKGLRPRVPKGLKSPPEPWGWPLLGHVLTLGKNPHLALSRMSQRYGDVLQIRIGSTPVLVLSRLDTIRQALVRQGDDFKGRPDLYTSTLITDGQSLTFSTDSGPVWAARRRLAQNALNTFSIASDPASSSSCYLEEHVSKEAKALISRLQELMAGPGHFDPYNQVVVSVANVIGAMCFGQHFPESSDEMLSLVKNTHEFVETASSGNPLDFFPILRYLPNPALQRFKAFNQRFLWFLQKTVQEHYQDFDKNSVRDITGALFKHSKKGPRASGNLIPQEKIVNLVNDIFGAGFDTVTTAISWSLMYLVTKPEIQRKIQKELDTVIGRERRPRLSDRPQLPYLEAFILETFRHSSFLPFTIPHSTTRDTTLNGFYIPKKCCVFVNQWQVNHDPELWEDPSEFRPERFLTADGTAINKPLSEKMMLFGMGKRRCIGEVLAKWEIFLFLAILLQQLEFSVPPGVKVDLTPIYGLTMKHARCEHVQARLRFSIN
Assay method text: Inhibition of CYP1A2 (unknown origin) using phenacetin as substrate at 10 uM by cocktail based assay relative to control
Format: ADME
Details: probe phenacetin
Reported endpoint: inhibition at 10 µM (%)

# count of solved cases: 2
| Structure string | Meas value |
| --- | --- |
| c1cc(-c2ccc3nc(N4CCCC4)ncc3c2)nc(Nc2cnn(C3CCNCC3)c2)n1 | 52 |
| c1cc(-c2ccc3nc(N4CCOCC4)ncc3c2)nc(Nc2cnn(C3CCNCC3)c2)n1 | 11 |

P = CC(C)NC(=O)c1ccc(Nc2nccc(-c3ccc4nc(N5CCOCC5)ncc4c3)n2)cc1
Q = CC(C)NC(=O)c1ccc(Nc2nccc(-c3ccc4nc(N5CCCC5)ncc4c3)n2)cn1
R = c1cc(-c2ccc3nc(N4CCCC4)ncc3c2)nc(Nc2ccc(N3CCNCC3)cc2)n1
query: With regard to inhibition at 10 µM, arrange the entries in ascending order, please. Answer by listing the labels in the order asked for.
result: R, P, Q
(R: 7%, P: 12%, Q: 22%)

* * *

System: LIM domain kinase 1 (Homo sapiens, UniProt P53667)
Sequence (P53667 whole entry, the tested form may be a part): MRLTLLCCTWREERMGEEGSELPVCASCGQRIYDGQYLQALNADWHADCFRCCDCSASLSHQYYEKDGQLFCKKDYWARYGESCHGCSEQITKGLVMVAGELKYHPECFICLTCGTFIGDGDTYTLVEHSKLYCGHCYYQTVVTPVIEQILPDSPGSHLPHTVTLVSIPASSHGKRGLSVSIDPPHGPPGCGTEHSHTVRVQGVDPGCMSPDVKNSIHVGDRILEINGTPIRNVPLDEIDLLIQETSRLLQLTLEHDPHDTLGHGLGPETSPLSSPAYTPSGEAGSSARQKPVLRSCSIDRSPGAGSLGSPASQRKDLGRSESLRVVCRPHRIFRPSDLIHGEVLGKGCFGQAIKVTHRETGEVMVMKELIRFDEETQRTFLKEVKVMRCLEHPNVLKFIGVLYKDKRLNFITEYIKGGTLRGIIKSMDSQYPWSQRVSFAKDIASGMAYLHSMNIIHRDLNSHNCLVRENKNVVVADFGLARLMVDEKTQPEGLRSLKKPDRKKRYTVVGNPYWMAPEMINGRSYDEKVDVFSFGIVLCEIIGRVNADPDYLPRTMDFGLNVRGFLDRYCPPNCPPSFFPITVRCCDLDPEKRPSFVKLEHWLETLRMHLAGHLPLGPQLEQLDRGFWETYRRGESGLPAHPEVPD
Reported endpoint: IC50 (nM)
Answer in nM, number only, no unit symbol.

query: API: value(readout= IC50, system= LIM domain kinase 1 (Homo sapiens, UniProt P53667), query= `CC(C)NC(=O)c1ccc(Nc2nccc(-c3ccc4nc(N5CCCC5)ncc4c3)n2)cc1` )
result: 650

* * *

System: Dual specificity protein kinase CLK4 (Homo sapiens, UniProt Q9HAZ1)
Sequence (Q9HAZ1 whole entry): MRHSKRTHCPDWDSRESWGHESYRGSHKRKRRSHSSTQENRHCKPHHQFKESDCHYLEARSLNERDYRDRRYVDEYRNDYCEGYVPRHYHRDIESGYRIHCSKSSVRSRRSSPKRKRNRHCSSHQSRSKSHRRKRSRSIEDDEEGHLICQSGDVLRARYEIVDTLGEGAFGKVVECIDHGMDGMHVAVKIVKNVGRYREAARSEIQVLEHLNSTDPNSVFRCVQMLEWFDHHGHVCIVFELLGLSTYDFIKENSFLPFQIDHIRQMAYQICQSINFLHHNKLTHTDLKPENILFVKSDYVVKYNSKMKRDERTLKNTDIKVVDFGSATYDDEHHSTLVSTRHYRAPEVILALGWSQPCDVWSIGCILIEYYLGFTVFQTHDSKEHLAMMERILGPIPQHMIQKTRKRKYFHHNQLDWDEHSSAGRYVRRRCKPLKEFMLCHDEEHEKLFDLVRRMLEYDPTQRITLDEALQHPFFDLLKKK
pIC50: −log10 of the molar value.
Reported endpoint: pIC50

| Structure string | pIC50 |
| --- | --- |
| c1cc(-c2ccc3nc(N4CCCC4)ncc3c2)nc(Nc2ccc(N3CCNCC3)nc2)n1 | 6.91 |

P = OCCN1CCC(c2ccc(Nc3nccc(-c4ccc5nc(N6C[C@@H]7C[C@H]6CO7)ncc5c4)n3)cn2)CC1
Q = OCCN1C[C@@H]2C[C@H]1CN2c1ccc(Nc2ncc(F)c(-c3ccc4nc(N5CCCC5)ncc4c3)n2)cn1
query: Consider P and Q . Which of these has its pIC50 at a higher number? To answer, give the label that identifies your chosen option.
result: Q
(Q: 6.80, P: 5.95)

* * *

Assay method text: Tmax in C57BL/6 mouse at 10 mg/kg,po administration and measured upto 24 hrs
Type: ADME, organism-based
Details: in vivo
Reported endpoint: Tmax (h)
Numeric answer only, unit h assumed.

query: Consider the compound shown here: `CC(C)NC(=O)c1ccc(Nc2nccc(-c3ccc4nc(N5CCCC5)ncc4c3)n2)cc1` What is its recorded Tmax?
result: 1

* * *

System: UniProt:P10635
Sequence (P10635 whole entry): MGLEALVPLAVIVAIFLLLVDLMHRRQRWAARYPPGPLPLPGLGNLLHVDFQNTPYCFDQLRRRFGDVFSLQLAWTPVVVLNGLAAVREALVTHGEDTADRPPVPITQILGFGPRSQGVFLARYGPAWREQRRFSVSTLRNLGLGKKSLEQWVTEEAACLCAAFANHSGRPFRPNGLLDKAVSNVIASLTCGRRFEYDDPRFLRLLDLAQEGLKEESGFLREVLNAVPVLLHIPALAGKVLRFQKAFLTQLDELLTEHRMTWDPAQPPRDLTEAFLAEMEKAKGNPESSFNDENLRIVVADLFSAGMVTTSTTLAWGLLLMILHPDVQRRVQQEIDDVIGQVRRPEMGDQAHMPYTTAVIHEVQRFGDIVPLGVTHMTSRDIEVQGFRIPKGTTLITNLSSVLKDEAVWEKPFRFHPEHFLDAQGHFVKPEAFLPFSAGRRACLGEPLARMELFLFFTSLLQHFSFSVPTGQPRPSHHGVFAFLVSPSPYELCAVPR
Assay method text: Inhibition of CYP2D6 (unknown origin) using bufuralol as substrate at 10 uM by cocktail based assay relative to control
Format: ADME
Details: probe bufuralol
Reported endpoint: inhibition at 10 µM (%)

I = c1cc(-c2ccc3nc(N4CCCC4)ncc3c2)nc(Nc2ccc(N3CCNCC3)cc2)n1
II = CC(C)NC(=O)c1ccc(Nc2nccc(-c3ccc4nc(N5CCOCC5)ncc4c3)n2)cc1
III = CC(C)NC(=O)c1ccc(Nc2nccc(-c3ccc4nc(N5CCCC5)ncc4c3)n2)cn1
query: Sort entries by inhibition at 10 µM from minimum to maximum value. Give your ranking as a list of the labels in the requested order.
result: II, I, III
(II: 1%, I: 2%, III: 16%)

* * *

Assay method text: AUClast in C57BL/6 mouse at 10 mg/kg,po administration and measured upto 24 hrs
Type: ADME, organism-based
Details: in vivo
Reported endpoint: AUC(0-t) at 24 h (µM·h)
The reply should contain only the number, in µM·h.

query: Returns the measured AUC(0-t) at 24 h for the input molecule. Input: `CC(C)NC(=O)c1ccc(Nc2nccc(-c3ccc4nc(N5CCCC5)ncc4c3)n2)cc1`
result: 4.2

* * *

Listed below: IC50 values for each entry.
System: MOLM-13
Assay method text: Antiproliferative activity against human MOLM-13 cells assessed as inhibition of cell growth incubated for 72 hrs by Cell Titer-Glo luminescence assay
Assay type: functional, cell-based
Details: MOLM-13, 72 h
Write down the numeric answer in nM and omit the unit.

| Structure string | System | IC50 (nM) |
| --- | --- | --- |
| CC(C)NC(=O)c1ccc(Nc2nccc(-c3ccc4nc(N5CCCC5)ncc4c3)n2)cc1 | MOLM-13 | 920 |
| OCCN1CCC(n2cc(Nc3ncc(F)c(-c4ccc5nc(N6CCOCC6)ncc5c4)n3)cn2)CC1 | MOLM-13 | 1960 |

query: Can you share its IC50? I mean this compound: `c1cc(-c2ccc3nc(N4CCCC4)ncc3c2)nc(Nc2ccc(N3CCNCC3)nc2)n1`
result: 1340

* * *

Assay method text: Microsomal stability in mouse liver microsomes assessed as half life
Format: ADME, Microsome
Reported endpoint: half-life (min)

| Structure string | half-life [min] |
| --- | --- |
| OCCN1CCC(n2cc(Nc3ncc(F)c(-c4ccc5nc(N6CCOCC6)ncc5c4)n3)cn2)CC1 | 83 |

a = c1cc(-c2ccc3nc(N4CCCC4)ncc3c2)nc(Nc2ccc(N3CCNCC3)cc2)n1
b = OCCN1CCC(c2ccc(Nc3nccc(-c4ccc5nc(N6C[C@@H]7C[C@H]6CO7)ncc5c4)n3)cn2)CC1
c = CC(C)NC(=O)c1ccc(Nc2ncc(F)c(-c3ccc4nc(N5CCCC5)ncc4c3)n2)cc1
query: I would appreciate it if you could sort these 3 compounds by half-life, starting from the smallest number. Write the labels, ordered according to the request.
result: a, c, b
(a: 9 min, c: 22 min, b: 69 min)

I = c1cc(-c2ccc3nc(N4CCOCC4)ncc3c2)nc(Nc2cnn(C3CCNCC3)c2)n1
II = c1cc(-c2ccc3nc(N4CCOCC4)ncc3c2)nc(Nc2ccc(N3CCNCC3)cc2)n1
III = c1cc(-c2ccc3nc(N4CCCC4)ncc3c2)nc(Nc2ccc(N3CCOCC3)cc2)n1
query: Sequence the entries by half-life, beginning with the highest number. Lab note: final answer is the ordered label list.
result: I, III, II
(I: 62 min, III: 35 min, II: 16 min)

A = CC(C)NC(=O)c1ccc(Nc2nccc(-c3ccc4nc(N5CCOCC5)ncc4c3)n2)cc1
B = CC(C)NC(=O)c1ccc(Nc2nccc(-c3ccc4nc(N5CCCC5)ncc4c3)n2)cn1
query: Which numeric half-life is bigger, that of A or that of B ? Give the label of your selection.
result: B

* * *

System: CYP3A4 (Homo sapiens, UniProt P08684)
Sequence (P08684 whole entry): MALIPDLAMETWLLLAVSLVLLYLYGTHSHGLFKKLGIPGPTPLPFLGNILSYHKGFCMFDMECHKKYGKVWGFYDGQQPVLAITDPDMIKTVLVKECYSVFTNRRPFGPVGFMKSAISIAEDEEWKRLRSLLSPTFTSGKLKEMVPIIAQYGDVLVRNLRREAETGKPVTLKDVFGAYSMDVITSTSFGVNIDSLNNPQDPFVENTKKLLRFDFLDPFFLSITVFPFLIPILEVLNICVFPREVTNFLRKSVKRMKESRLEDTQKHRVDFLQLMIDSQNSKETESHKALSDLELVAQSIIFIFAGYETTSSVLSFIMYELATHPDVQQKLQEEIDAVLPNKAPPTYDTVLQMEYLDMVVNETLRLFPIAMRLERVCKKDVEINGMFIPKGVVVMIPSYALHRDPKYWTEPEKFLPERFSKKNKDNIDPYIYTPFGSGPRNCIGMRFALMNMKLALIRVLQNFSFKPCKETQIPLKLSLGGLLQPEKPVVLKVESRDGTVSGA
Assay method text: Inhibition of CYP3A4 (unknown origin) using midazolam as substrate at 10 uM by cocktail based assay relative to control
Assay type: ADME
Details: probe midazolam
Reported endpoint: inhibition at 10 µM (%)

| Structure string | System | Meas value |
| --- | --- | --- |
| c1cc(-c2ccc3nc(N4CCCC4)ncc3c2)nc(Nc2ccc(N3CCOCC3)cc2)n1 | CYP3A4 (Homo sapiens, UniProt P08684) | 22 |

A = c1cc(-c2ccc3nc(N4CCCC4)ncc3c2)nc(Nc2ccc(N3CCNCC3)cc2)n1
B = c1cc(-c2ccc3nc(N4CCOCC4)ncc3c2)nc(Nc2ccc(N3CCNCC3)cc2)n1
query: Of A and B , which carries the smaller reported inhibition at 10 µM figure? Identify your selection by its label.
result: B

* * *

System: CYP2C9 (Homo sapiens, UniProt P11712)
Sequence (P11712 whole entry): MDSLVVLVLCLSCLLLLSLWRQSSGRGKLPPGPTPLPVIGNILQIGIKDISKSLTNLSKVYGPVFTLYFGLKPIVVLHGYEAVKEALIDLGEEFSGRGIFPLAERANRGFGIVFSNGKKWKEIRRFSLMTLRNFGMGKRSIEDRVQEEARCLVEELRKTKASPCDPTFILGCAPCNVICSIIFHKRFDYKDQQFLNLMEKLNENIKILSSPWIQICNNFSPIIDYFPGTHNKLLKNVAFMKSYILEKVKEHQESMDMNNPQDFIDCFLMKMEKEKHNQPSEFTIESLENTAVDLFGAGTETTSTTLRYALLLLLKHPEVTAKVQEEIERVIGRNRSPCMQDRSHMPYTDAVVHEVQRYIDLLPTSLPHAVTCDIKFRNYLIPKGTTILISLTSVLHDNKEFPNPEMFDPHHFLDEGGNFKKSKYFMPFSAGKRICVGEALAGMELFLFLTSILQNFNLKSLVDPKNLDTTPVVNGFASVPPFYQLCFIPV
Assay method text: Inhibition of CYP2C9 (unknown origin) using tolbutamide as substrate at 10 uM by cocktail based assay relative to control
Format: ADME
Details: probe tolbutamide
Reported endpoint: inhibition at 10 µM (%)

| Structure string | Reported endpoint | Meas value |
| --- | --- | --- |
| CC(C)NC(=O)c1ccc(Nc2nccc(-c3ccc4nc(N5CCCC5)ncc4c3)n2)cc1 | inhibition at 10 µM | 14 |

a = c1cc(-c2ccc3nc(N4CCCC4)ncc3c2)nc(Nc2ccc(N3CCNCC3)cc2)n1
b = c1cc(-c2ccc3nc(N4CCCC4)ncc3c2)nc(Nc2ccc(N3CCOCC3)cc2)n1
c = c1cc(-c2ccc3nc(N4CCOCC4)ncc3c2)nc(Nc2ccc(N3CCNCC3)cc2)n1
d = CC(C)NC(=O)c1ccc(Nc2nccc(-c3ccc4nc(N5CCCC5)ncc4c3)n2)cn1
query: Output the entries ranked by inhibition at 10 µM from maximum down to minimum. Lab note: record answer as labels in requested order.
result: d, a, b, c
(d: 39%, a: 23%, b: 14%, c: 7%)

* * *

System: Serine/threonine-protein kinase 17A (Homo sapiens, UniProt Q9UEE5)
Sequence (Q9UEE5 whole entry): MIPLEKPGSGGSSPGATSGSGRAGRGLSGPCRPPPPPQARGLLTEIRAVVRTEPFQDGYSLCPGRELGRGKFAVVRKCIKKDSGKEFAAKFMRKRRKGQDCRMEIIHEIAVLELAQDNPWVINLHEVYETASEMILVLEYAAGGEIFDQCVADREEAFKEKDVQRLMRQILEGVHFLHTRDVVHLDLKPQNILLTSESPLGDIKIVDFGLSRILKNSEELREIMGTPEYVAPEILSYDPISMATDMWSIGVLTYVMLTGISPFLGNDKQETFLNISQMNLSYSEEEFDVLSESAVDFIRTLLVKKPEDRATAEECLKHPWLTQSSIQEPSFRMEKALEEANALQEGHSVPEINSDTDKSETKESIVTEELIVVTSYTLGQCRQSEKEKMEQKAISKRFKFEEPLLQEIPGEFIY
Assay method text: Inhibition of STK17A (unknown origin) in presence of ATP
Reported endpoint: IC50 (nM)

Known IC50 results, listed for orientation:
| Structure string | Reported endpoint | Meas value |
| --- | --- | --- |
| COC(=O)N1CCC(c2ccc(Nc3nccc(-c4ccc5nc(N6CCCC6)ncc5c4)n3)cn2)CC1 | IC50 | 66 |
| c1cc(-c2ccc3nc(N4CCCC4)ncc3c2)nc(Nc2ccc(N3CCNCC3)nc2)n1 | IC50 | 18 |
| CC(C)NC(=O)c1ccc(Nc2nccc(-c3ccc4nc(N5CCCC5)ncc4c3)n2)cc1 | IC50 | 23 |

P = CN1CCN(c2ccc(Nc3nccc(-c4ccc5nc(N6CCCC6)ncc5c4)n3)cc2)CC1
Q = CC(C)NC(=O)c1ccc(Nc2ncc(F)c(-c3ccc4nc(N5CCCC5)ncc4c3)n2)cc1
query: # query: argmin of IC50 over P and Q Let me know the label of the one you choose.
result: Q
